experiment: chemical recovery from spiked human plasma; higher = better extraction; settings: pooled human plasma; extraction method: SPE only (HLB 96-well), PES comparison experiment
PARAMETER: chemical recovery
Note to self: number, then unit, no commentary.

Any idea what chemical recovery was measured for `Cc1ccccc1N` ? 6.06%

Any idea what chemical recovery was measured for CC1(C)O[C@@H]2C[C@H]3[C@@H]4C[C@H](F)C5=CC(=O)C=C[C@]5(C)[C@@]4(F)[C@@H](O)C[C@]3(C)[C@]2(C(=O)CO)O1 [Fluocinolone acetonide] ? 46.1%

Any idea what chemical recovery was measured for `O=C(O)C(F)(F)C(F)(F)C(F)(F)F` ? 41.2%

Any idea what chemical recovery was measured for `O=c1c(-c2ccc(O)cc2)coc2cc(O)cc(O)c12` ? 46.4%

Any idea what chemical recovery was measured for CCc1cccc(C)c1NC(=O)CS(=O)(=O)O [Metolachlor CGA 368-208] ? 47.9%

Any idea what chemical recovery was measured for `COCCCC/C(=N\OCCN)c1ccc(C(F)(F)F)cc1` ? 41.8%

Any idea what chemical recovery was measured for `COc1ccc2c(c1)[nH]c1c(C)nccc12` ? 48.6%

Any idea what chemical recovery was measured for CC[C@H]1CCC[C@H](O[C@H]2CC[C@H](N(C)C)[C@@H](C)O2)[C@@H](C)C(=O)C2=C[C@@H]3[C@@H](C=C[C@@H]4C[C@@H](O[C@@H]5O[C@@H](C)[C@H](OC)[C@@H](OC)[C@H]5OC)C[C@@H]34)[C@@H]2CC(=O)O1 [Spinosyn A] ? 39.5%

Any idea what chemical recovery was measured for `Cc1ccc(S(=O)(=O)O)c(C)c1` ? 45.2%

Any idea what chemical recovery was measured for `CC(C)Oc1cc(-n2nc(C(C)(C)C)oc2=O)c(Cl)cc1Cl` ? 34.7%

Any idea what chemical recovery was measured for `CC=CC(=O)N(CC)c1ccccc1C` ? 36.1%

Any idea what chemical recovery was measured for CCN(CCO)CCCC(C)Nc1ccnc2cc(Cl)ccc12 (centres undefined) [Hydroxychloroquine] ? 9.45%

Any idea what chemical recovery was measured for O=P1(NCCCl)OCCCN1CCCl (centres undefined) [Ifosfamide] ? 55.9%

Any idea what chemical recovery was measured for `Cn1ncc(N)c(Cl)c1=O` ? 35.8%

Any idea what chemical recovery was measured for `Nc1ccccc1-c1ccccc1` ? 27.7%

Any idea what chemical recovery was measured for `Nc1cccc2ccccc12` ? 22%

Any idea what chemical recovery was measured for `Cc1cc(=O)oc2cc(N)ccc12` ? 53.5%

Any idea what chemical recovery was measured for CCc1cccc(C)c1N(C(=O)C(=O)O)C(C)COC (centres undefined) ? 54.1%

Any idea what chemical recovery was measured for CNC1(c2ccccc2Cl)CCCCC1=O (centres undefined) ? 45.4%

Any idea what chemical recovery was measured for `OC(Cn1cncn1)(Cn1cncn1)c1ccc(F)cc1F` ? 47%

Any idea what chemical recovery was measured for `CNC(=O)Oc1cc(C)c(SC)c(C)c1` ? 0.163%

Any idea what chemical recovery was measured for `CC(C)N1C(=O)c2ccccc2NS1(=O)=O` ? 63.8%

Any idea what chemical recovery was measured for CC(C)(C)NC(=O)[C@H]1CC[C@H]2[C@@H]3CC[C@H]4NC(=O)C=C[C@]4(C)[C@H]3CC[C@]12C [Finasteride] ? 47.9%

Any idea what chemical recovery was measured for `CCOP(=S)(OCC)SCn1nnc2ccccc2c1=O` ? 46.3%

Any idea what chemical recovery was measured for `Cc1cc(C2CC2)nc(Nc2ccccc2)n1` ? 38.5%

Any idea what chemical recovery was measured for `O=c1[nH]c2ccccc2n1CCCN1CCC(n2c(=O)[nH]c3cc(Cl)ccc32)CC1` ? 44.6%

Any idea what chemical recovery was measured for c1ccc2sc(SNC3CCCCC3)nc2c1 [N-Cyclohexyl-2-benzothiazole-sulfenamide] ? 44.1%

Any idea what chemical recovery was measured for `CC(C)Nc1nc(N)nc(Cl)n1` ? 51%

Any idea what chemical recovery was measured for `CN1CCN(C)C1=O` ? 13.6%

Any idea what chemical recovery was measured for `O=c1[nH]sc2ccccc12` ? 1.19%

Any idea what chemical recovery was measured for Cc1cccc(Nc2ccncc2S(=O)(=O)NC(=O)NC(C)C)c1 [Torasemide] ? 49.1%

Any idea what chemical recovery was measured for `Oc1ccc(Cl)cc1Cc1ccccc1` ? 48.5%

Any idea what chemical recovery was measured for `CN(C)CCC=C1c2ccccc2CCc2ccccc21` ? 44.1%

Any idea what chemical recovery was measured for `Clc1ccc2ccccc2c1` ? 0.564%

Any idea what chemical recovery was measured for `Clc1cc(Cl)c(-c2c(Cl)ccc(Cl)c2Cl)cc1Cl` ? 10.4%

Any idea what chemical recovery was measured for CN(C)CCOC(c1ccccc1)c1ccccc1 [Diphenhydramine] ? 50.3%

Any idea what chemical recovery was measured for `CC/C(=C(\c1ccccc1)c1ccc(OCCN(C)C)cc1)c1ccccc1` ? 38.5%

Any idea what chemical recovery was measured for O=S1OC[C@@H]2[C@H](CO1)[C@]1(Cl)C(Cl)=C(Cl)[C@]2(Cl)C1(Cl)Cl (stereo partly drawn) [beta-Endosulfan] ? 15.9%

Any idea what chemical recovery was measured for `c1ccc2c(c1)[nH]c1cnccc12` ? 48%

###

assay: chemical recovery by SPE of plasma after PDMS sampling; higher = better extraction; details: pooled human plasma; extraction method: HLB SPE of plasma after PES; equilibration time (d): 1
PARAMETER: chemical recovery by SPE of plasma (%)
Dear colleague, please return just the value in %, with no unit written.

Any idea what chemical recovery by SPE of plasma was measured for `Oc1ccc(Cl)cc1Cc1ccccc1` ? 36.9

Any idea what chemical recovery by SPE of plasma was measured for `CN[C@H]1CC[C@@H](c2ccc(Cl)c(Cl)c2)c2ccccc21` ? 0.296

Any idea what chemical recovery by SPE of plasma was measured for `CC(C)(C)Nc1nc(N)nc(Cl)n1` ? 10

Any idea what chemical recovery by SPE of plasma was measured for `CCCCCCCCc1cccc(Nc2ccccc2)c1CCCCCCCC` ? 0.988

Any idea what chemical recovery by SPE of plasma was measured for `Cc1ccccc1N` ? 4.67

Any idea what chemical recovery by SPE of plasma was measured for `Cc1cccc(Nc2ccccc2C(=O)O)c1C` ? 14.9

Any idea what chemical recovery by SPE of plasma was measured for `c1ccc(/N=N/c2ccccc2)cc1` ? 0.184

Any idea what chemical recovery by SPE of plasma was measured for `CCCCc1oc2ccccc2c1C(=O)c1cc(I)c(OCCN(CC)CC)c(I)c1` ? 0.357

Any idea what chemical recovery by SPE of plasma was measured for `Nc1ccc(Sc2ccc(N)cc2)cc1` ? 11.7

Any idea what chemical recovery by SPE of plasma was measured for `C/C(=N\C#N)N(C)Cc1ccc(Cl)nc1` ? 46.9

Any idea what chemical recovery by SPE of plasma was measured for `COCCN(C(=O)CS(=O)(=O)O)c1c(C)cccc1C` ? 46.9

###

assay: chemical recovery from spiked human plasma; higher = better extraction; conditions: pooled human plasma; extraction method: solvent precipitation (ACN + hexane)
PARAMETER: chemical recovery (%)
Dear colleague, please return just the value in %, with no unit written.

Any idea what chemical recovery was measured for Cc1cnc2c(C(=O)O)c(Cl)ccc2c1 [Quinmerac] ? 65.8

Any idea what chemical recovery was measured for CC(=O)Nc1ccc(S(=O)(=O)Nc2cc(C)on2)cc1 [Acetyl-sulfamethoxazole] ? 72

Any idea what chemical recovery was measured for Cc1c(C(C)C)c(=O)n(-c2ccccc2)n1C [Propyphenazone] ? 69.3

Any idea what chemical recovery was measured for O=C(O)C(F)(F)C(F)(F)C(F)(F)C(F)(F)C(F)(F)F [Perfluorohexanoic acid] ? 75.3

Any idea what chemical recovery was measured for CCNc1nc(NCC)nc(SC)n1 [Simetryn] ? 70.9

Any idea what chemical recovery was measured for CS(=O)(=O)c1ccccc1 [Methylphenylsulfone] ? 68

Any idea what chemical recovery was measured for Cn1c(N)nc2ncc(-c3ccccc3)cc21 [2-Amino-1-methyl-6-phenylimidazo[4,5-b]pyridine (PhIP)] ? 72.4

Any idea what chemical recovery was measured for NCCc1ccccc1 [Phenethylamine] ? 47.1

Any idea what chemical recovery was measured for O=C(O)CCCOc1ccc(Cl)cc1Cl [2,4-DB] ? 61.5

Any idea what chemical recovery was measured for Cc1cccc(Nc2ccncc2S(=O)(=O)NC(=O)NC(C)C)c1 [Torasemide] ? 73.1

Any idea what chemical recovery was measured for CC1=NNC(=O)N(/N=C/c2cccnc2)C1 [Pymetrozine] ? 75.4

Any idea what chemical recovery was measured for c1ccc2c(c1)ccc1sc3ccccc3c12 [Benzo[b]naphtho(1,2-d)thiophene] ? 20.4

Any idea what chemical recovery was measured for O=C(O)C(F)(F)C(F)(F)C(F)(F)OC(F)(F)F [Perfluoro-4-methoxybutanoic-acid] ? 78.7

Any idea what chemical recovery was measured for Clc1cccc(Cl)c1NC1=NCCN1 [Clonidine] ? 60.3

Any idea what chemical recovery was measured for COc1cc(C)c(C(=O)c2c(OC)ccc(Br)c2C)c(OC)c1OC [Metrafenone] ? 76.4

Any idea what chemical recovery was measured for CC(Cc1ccc(C(C)(C)C)cc1)CN1CCCCC1 (configuration not stated) [Fenpropidin] ? 105

Any idea what chemical recovery was measured for C[C@H](CCC(=O)O)[C@H]1CC[C@H]2[C@@H]3[C@H](O)C[C@@H]4C[C@H](O)CC[C@]4(C)[C@H]3CC[C@]12C [Chenodeoxycholic-acid] ? 74.9

Any idea what chemical recovery was measured for CCCCc1oc2ccccc2c1C(=O)c1cc(I)c(OCCN(CC)CC)c(I)c1 [Amiodarone] ? 106

Any idea what chemical recovery was measured for `Clc1nc2ccccc2s1` ? 5.44

Any idea what chemical recovery was measured for Clc1ccc(COC(Cn2ccnc2)c2ccc(Cl)cc2Cl)c(Cl)c1 (configuration not stated) [Miconazole] ? 85.3

Any idea what chemical recovery was measured for CC[C@H](C)[C@H]1O[C@]2(CC[C@@H]1C)C[C@@H]1C[C@@H](C/C=C(\C)[C@@H](O[C@H]3C[C@H](OC)[C@@H](O[C@H]4C[C@H](OC)[C@@H](O)[C@H](C)O4)[C@H](C)O3)[C@@H](C)/C=C/C=C3\CO[C@@H]4[C@H](O)C(C)=C[C@@H](C(=O)O1)[C@]34O)O2 [Ivermectin-B1a] ? 30.3

Any idea what chemical recovery was measured for Nc1ccc(Oc2ccc(N)cc2)cc1 [4,4'-Oxydianiline] ? 26.3

Any idea what chemical recovery was measured for CC12CC3CC(C)(C1)CC(N)(C3)C2 [Memantine] ? 47.1

Any idea what chemical recovery was measured for CSc1nc(NC2CC2)nc(NC(C)(C)C)n1 [Irgarol] ? 81.5

Any idea what chemical recovery was measured for NC(=O)N1c2ccccc2C(O)C(O)c2ccccc21 (configuration not stated) [10,11-Dihydro-10,11-dihydroxycarbamazepine] ? 71

Any idea what chemical recovery was measured for Oc1c(Br)cc(Cl)cc1Cc1cc(Cl)cc(Br)c1O [Bromochlorophen] ? 34.9

Any idea what chemical recovery was measured for Oc1ccc(Cl)cc1Cc1cc(Cl)ccc1O [Dichlorophen] ? 45.7

Any idea what chemical recovery was measured for O=C1NCCN1Cc1ccc(Cl)nc1 [Imidacloprid-urea] ? 77.1

Any idea what chemical recovery was measured for O=C(O)C(F)(F)C(F)(F)C(F)(F)C(F)(F)C(F)(F)C(F)(F)C(F)(F)C(F)(F)F [Perfluorononanoic-acid] ? 66.3

Any idea what chemical recovery was measured for c1ccc2[nH]nnc2c1 [1H-Benzotriazole] ? 62.5

Any idea what chemical recovery was measured for Oc1ccc(C(c2ccccc2)(c2ccccc2)c2ccc(O)cc2)cc1 [Bisphenol-BP] ? 35.1

Any idea what chemical recovery was measured for Cc1cccc(C)c1N(Cn1cccn1)C(=O)CCl [Metazachlor] ? 66.2

Any idea what chemical recovery was measured for O=S(=O)(O)c1ccccc1 [Benzenesulfonic acid] ? 80.7

Any idea what chemical recovery was measured for CC(C)N1C(=O)c2ccccc2NS1(=O)=O [Bentazone] ? 75.2

Any idea what chemical recovery was measured for CC(Cc1ccc(C(C)(C)C(=O)O)cc1)CN1C[C@@H](C)O[C@@H](C)C1 (some centres not stated) [Fenpropimorph-acid] ? 67.5

Any idea what chemical recovery was measured for CCOc1ccc(C(C)(C)COCc2cccc(Oc3ccccc3)c2)cc1 [Etofenprox] ? 5.02

Any idea what chemical recovery was measured for CN(C)C(=O)C(CCN1CCC(O)(c2ccc(Cl)cc2)CC1)(c1ccccc1)c1ccccc1 [Loperamide] ? 73.1
